method-summary: folding stability dG unfold from trypsin proteolysis; higher = more stable
I'd appreciate it if you could supply folding stability dG unfold values for the items below.
Your answer is read as kcal/mol, so omit the unit and give the number.

Problem: I am curious: what folding stability dG unfold value has been reported for SAGGSAGGSAGMTIEELKAKGYKVEVVKLPDSPEEVVVVTYPVPPGGIEKSVIPLSEVKLSAGGSAGGSAGG [r17_311_JUSTAS] ?
Solution: -0.00127

Problem: For the sequence shown here, SAGGLPEEVEKLAEILAKLPPVVPVPVTFPDGVEVVYFPPTGFVAVRFYERDENGEWVLVGETFFPVSAGGS [r16_243_TrMRF] , give the reported folding stability dG unfold.
Solution: 2.44

Problem: # folding stability dG unfold lookup, item SAGGSAMTTTTSTDPATNKTYVTVTFPKDEALVEEVKEELKKKGIKEIKVYEFPENDLVRVEITVGSAGGSA [r2_358_JUSTAS]
Solution: 0.452

Problem: Which folding stability dG unfold is listed for SMKIKIEKVEDGYYKIKIYDKKTKKEYTIIVPKNMKPGQVELVNRNGKKITMTLEEIKKLLPPGAEVEIVSA [r9_250_TrROS_Hall] ?
Solution: 2.01

----------
I'd be grateful if you could share measured folding stability dG unfold for these entries.
method-summary: folding stability dG unfold (combined trypsin and chymotrypsin); higher = more stable
Kindly provide the numeric value in kcal/mol only, without the unit symbol.

Problem: Reported folding stability dG unfold, sequence SAGAIERILEWLKDQPPGDEVPIPIRLPNGWYIKINIEYNPEENKPKIEVEYYDPDDGKPRQEQKFTIPSAG [r5_35_TrROS] : ____
Solution: 1.31

Problem: Which measured folding stability dG unfold value corresponds to SAGGSAGGSAGGSMIVERKPAPGGPRVEITIEIPDPTSDVPIIKKLVAEVLEDGSIVKASAGGSAGGSAGGS [r4_448_JUSTAS] ?
Solution: -0.205

Problem: GET /values?readout=folding stability dG unfold&item= SAGGSAGGSIEIFKSPEGWYVRIWFPGKPQVIPIDDAEDLKNFEIPIPNGRPIKVEILPPKDLSAGGSAGGS [r12_730_TrROS]
Solution: 2.13

Problem: Name the recorded folding stability dG unfold for SAGGSAGGSKPIPYRVKIPSPNGKTHKFDVQIQVRPDGMIDIHVPSGKTIHIPANYPVEIEPWSAGGSAGGS [r20_227_TrROS] .
Solution: 0.056

Problem: I have this sequence here, SAARVTVTYDPATNTVTVTVEVEVDGVTVTVTATVTFVDGRLVLTVTVEVRPPPPPPSAEQLAALRAAASAG [r14_930_TrROS_Hall] , and I need its recorded folding stability dG unfold.
Solution: 2.74

Problem: Form field: reported folding stability dG unfold of SAPLSEEEARQLLEEVAEELERETGASYRVELFRDPATGRWFGRIELPDGRVYTVTYDPATGEVTVTVEASA [r9_9_JUSTAS]
Solution: 5.62

Problem: Given the entry SMSTNLVVKEKLIPPGVLVVTYKKDGKPVKVETKVVVIPPQLVVEEVLYPGGKLALKTYDPLTGTPSFELSA [r9_343_JUSTAS] , report its measured folding stability dG unfold.
Solution: 0.337

----------
method-summary: folding stability dG unfold from trypsin proteolysis; higher = more stable
Consider the following sequences; for each one, report its folding stability dG unfold.

Problem: I am curious: what folding stability dG unfold value has been reported for SAGLKVEIFPMDGTEQTIPIPAEDADPLVDEFQDNGFKVDNVEVDPDGEVWIPIKFPNGRPWMIEIDWESAG [r5_645_TrROS] ?
Solution: -0.0958 kcal/mol

Problem: Fill in the blank: the reported folding stability dG unfold of SAGGSAGGSAGKFKIKVFTHPDGYALALIEVPLGDKPVLILTLIKFPEDGNAEAETFIFPSAGGSAGGSAGG [r11_555_TrMRF] is ____.
Solution: 2.06 kcal/mol

Problem: Returns the measured folding stability dG unfold for the input sequence. Input: SAGGSAGGSAGGPEVEVFYERGPDGPLKVVVVVRNPDTPEVTVLVADLEPEKALEFLEALSAGGSAGGSAGG [r7_105_TrMRF]
Solution: 2 kcal/mol

Problem: Fill in: folding stability dG unfold of SAGGSAGGSAGGTGPPPVKTLVIVANWTEEQAEALKKAFPDQEVTVYEIPGLPKTVAVVSSAGGSAGGSAGG [r17_254_TrMRF] is ___
Solution: 0.833 kcal/mol
